System: MDA-MB-435
testDescription: NCI tumour cell line growth inhibition, 48 h
Activity calls are given as the source filed them. Rule as the data show it: active = GI50 up to about 1.1 µM and inactive = higher.
measuredProperty: GI50

| molecule | measuredProperty | val |
| --- | --- | --- |
| O=c1c2cc(-c3ccccc3)cnc2sn1-c1ccc(Br)cc1 | GI50 | > 100 µM (inactive) |
| CC(C)C[C@H]1[C@@H](OCc2ccccc2)COS(=O)N1[C@H](C)c1ccccc1 (stereo partly specified) | GI50 | 22.4 µM (inactive) |
| CC1CCC2CC1NC(=O)CCOCCC(=O)NC2(C)C (stereo unspecified) | GI50 | > 100 µM (inactive) |

Simply: Cc1cc2c3c(c1)CCCN3CCC2 , MDA-MB-435, GI50 = > 10 µM (inactive)

Simply: CCOC(=O)c1nc2ccc(C(F)(F)F)cc2nc1Nc1cc(OC)c(OC)c(OC)c1 , MDA-MB-435, GI50 = > 100 µM (inactive)

Simply: CN(C)CCCN1C(=S)N(CCCN(C)C)c2c3cc(O)ccc3nc3c([N+](=O)[O-])ccc1c23 , MDA-MB-435, GI50 = 4.2 µM (inactive)

* * *

Tested on: SF-295
testDescription: NCI tumour cell line growth inhibition, 48 h
The source made the active and inactive calls. Rule as the data show it: active = GI50 up to about 1.1 µM and inactive = higher.
Bench note: report the call from true for active, false for inactive

These recorded examples may help you get a feel for the data.
| molecule | classification |
| --- | --- |
| CC(=O)O[C@@H]1[C@H](OC2CCCCC2(c2ccccc2)c2ccccc2)O[N+]([O-])=CC12CCCCC2 (stereo partly specified) | false |
| Cc1cn(CCOCCOC(=O)NC(CCCNC(N)=O)C(=O)O)c(=O)[nH]c1=O (stereo unspecified) | false |
| C/C(=N\NC(=S)N1CCN(c2ccccn2)CC1)c1nccs1 | true |
| O=C(c1ccco1)N(C(=S)OC12CC3CC(CC(C3)C1)C2)c1ccccc1 | false |
| CC1CCC2CC1NC(=O)CCOCCC(=O)NC2(C)C (stereo unspecified) | false |

What is the recorded call for this molecule in the test? Clc1cccc(C2SCc3nc4ccccc4n32)c1Cl (stereo unspecified) false

What is the recorded call for this molecule in the test? O=c1c2cc([N+](=O)[O-])cnc2sn1-c1ccc([N+](=O)[O-])cc1 false

What is the recorded call for this molecule in the test? C[N+](C)([O-])C12CC3CC(CC(C3)C1)C2 false

* * *

Test system: U-251
testDescription: NCI tumour cell line growth inhibition, 48 h
Activity calls are given as the source filed them. No stated cut-off is given here; in the data, active = GI50 up to about 1.1 µM and inactive = higher.
Bench note: report the call from active, inactive

These recorded examples may help you get a feel for the data.
| molecule | classification |
| --- | --- |
| O=c1c2cc(-c3ccccc3)cnc2sn1-c1ccc(Br)cc1 | inactive |
| C=C=C(C)[Si](C)(C)C | inactive |
| CCCCN(CCCC)C1(c2cc3ccccc3s2)CCCCC1.[O-][Cl+3]([O-])([O-])O | inactive |

Below: the item to evaluate.
What is the recorded call for this molecule in the test? CC1=C2C(=O)OCC23C=COC3(C)O1 (stereo unspecified) inactive

* * *

Tested on: SK-MEL-5
testDescription: NCI tumour cell line growth inhibition, 48 h
Calls of active or inactive are those of the source. Rule as the data show it: active = GI50 up to about 1.1 µM and inactive = higher.
measuredProperty: GI50

| compound | GI50 |
| --- | --- |
| NS(=O)(=O)c1nnc(NC(=O)/C=C/C(=O)O)s1 | > 100 µM (inactive) |
| Nc1nc(O)c2nc(N)n(Cc3ccccc3)c2n1 | > 100 µM (inactive) |

Shifting focus to the compound that follows.
Reported GI50 of N=C1N(c2ccccc2)C(=O)C23CCCC2C13N1CCOCC1 (configuration not stated) : > 100 µM (inactive)

* * *

Tested on: MDA-MB-231
testDescription: NCI tumour cell line growth inhibition, 48 h
Calls of active or inactive are those of the source. Rule as the data show it: active = GI50 up to about 1.1 µM and inactive = higher.
Bench note: report the call from Y (active), N (inactive)

| compound | studySystem | classification |
| --- | --- | --- |
| Cc1ccc(C2SCC(=O)N2c2ccc(-n3c(-c4ccccc4)nc4ccccc4c3=O)cc2)cc1 (stereo unspecified) | MDA-MB-231 | N |

What is the recorded call for this compound in the test? CNC1=Nc2ccccc2C(=S)N2CSC[C@@H]12 N

What is the recorded call for this compound in the test? O[C@H]1[C@@H]2OC[C@@H](O)[C@H](OCc3ccccc3)[C@@](COCc3ccccc3)(O2)[C@@H]1OCc1ccccc1 N

* * *

Test system: NCI-H460
testDescription: NCI tumour cell line growth inhibition, 48 h
Calls of active or inactive are those of the source. Rule as the data show it: active = GI50 up to about 1.1 µM and inactive = higher. Where a SMILES comes first, the peptide text is derived from it. [ ]: non-standard residue; d: D form. The star is where a group is joined. Phe(4-NO2) = N[CH](Cc1ccc([N+](=O)[O-])cc1)C(=O)O; Boc = CC(C)(C)OC(=O)*; OtBu = CC(C)(C)O*
Bench note: report the call from t = active, f = inactive

These recorded examples may help you get a feel for the data.
| compound | studySystem | classification |
| --- | --- | --- |
| O=C1C2C3C=C4c5ccccc5N(c5ccccc5)C4(C2C(=O)N1c1ccccc1)C1C(=O)N(c2ccccc2)C(=O)C31 (stereo unspecified) | NCI-H460 | f |
| O=C1CCCC2=C1CC1=C(CCCC1=O)N2c1ccc([N+](=O)[O-])cc1 | NCI-H460 | f |
| Cc1cc(C)c(-n2[nH]c(=O)n(C)c2=O)c(C)c1 | NCI-H460 | f |
| Clc1c(Cl)c(Cl)c2c(nnn2C2CCCO2)c1Cl (stereo unspecified) | NCI-H460 | f |
| O=C1/C(=C/c2ccc(O)cc2)CCC1CNc1ccc(Cl)cc1 (stereo unspecified) | NCI-H460 | f |
| CC(=O)NC(CCC(=O)OC(C)(C)C)C(=O)NC(CCC(=O)OC(C)(C)C)C(=O)NC(Cc1ccc([N+](=O)[O-])cc1)C(=O)NC(CCCCNC(=O)OC(C)(C)C)C(=O)NC(CCCCNC(=O)OC(C)(C)C)C(=O)NCC(=O)O (stereo unspecified) (Ac-E(OtBu)E(OtBu)[Phe(4-NO2)]K(Boc)K(Boc)G-OH; configuration not given here) | NCI-H460 | f |
| CN(C)CCCN1C(=S)N(CCCN(C)C)c2c3cc(O)ccc3nc3c([N+](=O)[O-])ccc1c23 | NCI-H460 | t |
| Cc1c/c(=N/NC(=O)c2ccncc2)n2nc(N)sc2n1 | NCI-H460 | f |

What is the recorded call for this compound in the test? Cc1cccc(C(C)(C)C)c1NC(=O)CCl f

What is the recorded call for this compound in the test? C=CCC1=CC2(OC)C(=O)C(OC)(OC)C1C1C(OC)(OC)C(=O)C(OC)=CC12CC=C (stereo unspecified) f

What is the recorded call for this compound in the test? CN(C)CCS/C(=N\c1ccccc1)N1CCCCC1 f

* * *

System: HCT-116
testDescription: NCI tumour cell line growth inhibition, 48 h
Active and inactive are the calls of the source. No stated cut-off is given here; in the data, active = GI50 up to about 1.1 µM and inactive = higher.
Bench note: report the call from active, inactive

| compound | classification |
| --- | --- |
| CC1(C)C2CCC3=C(CCC4(C)C5C[C@](C)(C(=O)O)CC[C@]5(C)CC[C@]34C)[C@@]2(C)CC[C@@H]1O (stereo not given in full) | inactive |
| CCCCCc1cc2cc3c(c(O)c2c(=O)[nH]1)C1(CCC3)C(=O)c2c(O)c3c(c(O)c2C1=O)C(=O)C(OC)=CC3=O (stereo not given) | active |
| O=C1c2cc3c(cc2CC12Cc1cc4c(cc1C2=O)CCCC4)CCCC3 | inactive |
| Cc1ccc(S(=O)(=O)N/N=C2/CCC3(O)CC2(C)CCC2[C@H]3CC2(C)C)cc1 (stereo not given in full) | inactive |

What is the recorded call for this compound in the test? CCn1c2ccccc2c2ccc3c(c21)C(=O)c1ccccc1C3=O inactive

What is the recorded call for this compound in the test? CS(=O)(=O)OC1CCC2(C#N)CCC1C2=O (stereo not given) inactive

What is the recorded call for this compound in the test? CCN(CC)CCN1C=CC(C)C(C(=O)O)C1C(N)=O (stereo not given) inactive

What is the recorded call for this compound in the test? CCn1c(=O)c2c3ccc(OC)cc3[nH]c2c2ccc(OC)cc21 inactive

What is the recorded call for this compound in the test? COc1cccc2c(N)c3cccc(C(=O)NCCN(C)C)c3nc12 active

What is the recorded call for this compound in the test? O=NC1C(Cl)C2CC1C1C(Br)C(Br)CC21 (stereo not given) inactive

* * *

System: SR
testDescription: NCI tumour cell line growth inhibition, 48 h
Active and inactive are the calls of the source. Rule as the data show it: active = GI50 up to about 1.1 µM and inactive = higher.
Bench note: report the call from active, inactive

These recorded examples may help you get a feel for the data.
| compound | studySystem | classification |
| --- | --- | --- |
| Fc1ccc(OCc2nc3cc(C(F)(F)F)ccc3nc2-c2ccccc2)cc1 | SR | inactive |
| [N-]=[N+]=NC1(Cc2ccccc2)C(=O)c2cccc3c2N(CCC3)C1=O (stereo not drawn) | SR | inactive |
| O=C(CC1C=CCS1(=O)=O)NCc1ccccc1 (stereo not drawn) | SR | inactive |

Below: the item to evaluate.
What is the recorded call for this compound in the test? CC(C)(C)N(Cc1ccoc1)C(=O)/C=C\[S+]([O-])c1ccccc1 (stereo not drawn) inactive
